// provenance: ChEMBL document CHEMBL1208776

Measured EC90, listed per entry.
- System: Hepatitis C virus
- test.description: Antiviral activity against HCV genotype 1b in Huh7 cells assessed as inhibition of viral replication by cell-based replicon assay
- Format: functional, organism-based, Hepacivirus hominis
- recorded.conditions: Huh-7
Express it in nM; write the number only.

INSERT INTO assay_data (compound, output_unit, reading) VALUES
  ('COc1nc(N)nc2c1ncn2[C@@H]1O[C@H](COP(=O)(N[C@@H](C)C(=O)OC2CCCCC2)Oc2cccc3ccccc23)[C@@H](O)[C@@]1(C)O (stereo partly drawn)', 'nM', 90);

Next item in the queue.
Ask: Fill in the blank: the reported EC90 of COc1nc(N)nc2c1ncn2[C@@H]1O[C@H](COP(=O)(N[C@H](C(=O)OCC(C)(C)C)C(C)C)Oc2cccc3ccccc23)[C@@H](O)[C@@]1(C)O (stereo partly drawn) is ____.
Reply: 640

====

- Test system: Hepatitis C virus
- test.description: Antiviral activity against HCV genotype 1b in Huh7 cells assessed as inhibition of viral replication by cell-based replicon assay
- Assay type: functional, organism-based, Hepacivirus hominis
- recorded.conditions: Huh-7
Measured EC90, listed per entry.
Express it in nM; write the number only.

Ask: Could you share what EC90 was measured for COc1nc(N)nc2c1ncn2[C@@H]1O[C@H](COP(=O)(N[C@@H](C)C(=O)OCc2ccccc2)Oc2cccc3ccccc23)[C@@H](O)[C@@]1(C)O (stereo partly specified) , tested on Hepatitis C virus?
Reply: 100

Ask: Could you share what EC90 was measured for CCCOC(=O)[C@H](C)NP(=O)(OC[C@H]1O[C@@H](n2cnc3c(OC)nc(N)nc32)[C@](C)(O)[C@@H]1O)Oc1cccc2ccccc12 (stereo partly specified) , tested on Hepatitis C virus?
Reply: 100

====

- test.description: Cytotoxicity against human HuH7 cells
- Assay type: cell-based, Huh-7
- recorded.conditions: human, HuH7 cells; read-out: CC50
outcome.measure: CC50 (µM)
Express it in µM; write the number only.

Ask: Fill in the blank: the reported CC50 of COc1nc(N)nc2c1ncn2[C@@H]1O[C@H](COP(=O)(N[C@@H](C)C(=O)OCC(C)(C)C)Oc2cccc3ccccc23)[C@@H](O)[C@@]1(C)O (some centres not stated) [BMS-986094] is ____.
Reply: 7

====

Measured half-life, listed per entry.
- System: Carboxypeptidase A
- test.description: Half life in carboxypeptidase A assay
Express it in min; write the number only.

INSERT INTO assay_data (smiles_str, reading) VALUES
  ('COc1nc(N)nc2c1ncn2[C@@H]1O[C@H](CO[P@](=O)(N[C@@H](C)C(=O)OCC(C)(C)C)Oc2cccc3ccccc23)[C@@H](O)[C@@]1(C)O', 17);

Next item in the queue.
Ask: Fill in the blank: the reported half-life of "COc1nc(N)nc2c1ncn2[C@@H]1O[C@H](CO[P@@](=O)(N[C@@H](C)C(=O)OCC(C)(C)C)Oc2cccc3ccccc23)[C@@H](O)[C@@]1(C)O" is ____.
Reply: 20

====

Measured EC90, listed per entry.
- Tested on: Hepatitis C virus
- test.description: Antiviral activity against HCV genotype 1b in Huh7 cells assessed as inhibition of viral replication by cell-based replicon assay
- Type: functional, organism-based, Hepacivirus hominis
- recorded.conditions: Huh-7
Express it in µM; write the number only.

INSERT INTO assay_data (molecule, output_unit, reading) VALUES
  ('C[C@H](NP(=O)(OC[C@H]1O[C@@H](n2cnc3c(=O)[nH]c(N)nc32)[C@](C)(O)[C@@H]1O)Oc1cccc2ccccc12)C(=O)OCC(C)(C)C (stereo partly specified)', 'µM', 0.27),
  ('COc1nc(N)nc2c1ncn2[C@@H]1O[C@H](COP(=O)(N[C@@H](C)C(=O)OC2CCCC2)Oc2cccc3ccccc23)[C@@H](O)[C@@]1(C)O (stereo partly specified)', 'µM', 0.08),
  ('COc1nc(N)nc2c1ncn2[C@@H]1O[C@H](COP(=O)(N[C@@H](C)C(=O)OCC(C)(C)C)Oc2cccc3ccccc23)[C@@H](O)[C@@]1(C)O (stereo partly specified) [BMS-986094]', 'µM', 0.04),
  ('COc1nc(N)nc2c1ncn2[C@@H]1O[C@H](CO)[C@@H](O)[C@@]1(C)O [BETA-2''-C-METHYL-6-O-METHYL GUANOSINE]', 'µM', 21),
  ('COc1nc(N)nc2c1ncn2[C@@H]1O[C@H](COP(=O)(N[C@@H](CCSC)C(=O)OCC(C)(C)C)Oc2cccc3ccccc23)[C@@H](O)[C@@]1(C)O (stereo partly specified)', 'µM', 0.19);

Next item in the queue.
Ask: Fill in the blank: the reported EC90 of COc1nc(N)nc2c1ncn2[C@@H]1O[C@H](COP(=O)(N[C@H](C)C(=O)OCC(C)(C)C)Oc2cccc3ccccc23)[C@@H](O)[C@@]1(C)O (stereo partly specified) is ____.
Reply: 0.58

====

- Tested on: Hepatitis C virus
- test.description: Antiviral activity against HCV genotype 1b in Huh7 cells assessed as inhibition of viral replication by cell-based replicon assay
- Assay type: functional, organism-based, Hepacivirus hominis
- recorded.conditions: Huh-7
Measured EC90, listed per entry.
Express it in nM; write the number only.

INSERT INTO results (compound, outcome_measure, reading) VALUES
  ('COc1nc(N)nc2c1ncn2[C@@H]1O[C@H](COP(=O)(N[C@@H](C)C(=O)OCCC(C)(C)C)Oc2cccc3ccccc23)[C@@H](O)[C@@]1(C)O (some centres undefined)', 'EC90', 80),
  ('COc1nc(N)nc2c1ncn2[C@@H]1O[C@H](COP(=O)(N[C@@H](C)C(=O)OC(C)C)Oc2cccc3ccccc23)[C@@H](O)[C@@]1(C)O (some centres undefined)', 'EC90', 1700),
  ('COc1nc(N)nc2c1ncn2[C@@H]1O[C@H](COP(=O)(N[C@@H](CC(C)C)C(=O)OCC(C)(C)C)Oc2cccc3ccccc23)[C@@H](O)[C@@]1(C)O (some centres undefined)', 'EC90', 230);

Next item in the queue.
Ask: Could you share what EC90 was measured for CC[C@H](C)[C@H](NP(=O)(OC[C@H]1O[C@@H](n2cnc3c(OC)nc(N)nc32)[C@](C)(O)[C@@H]1O)Oc1cccc2ccccc12)C(=O)OCC(C)(C)C (some centres undefined) , tested on Hepatitis C virus?
Reply: 2530
